study target: HDAC6 (Homo sapiens, UniProt Q9UBN7)
Construct: purchased Reaction Biology Corporation (assay run by the CRO)
experimental protocol: HDAC6 inhibition, full IC50 measurement (Reaction Biology; fluorogenic p53 peptide RHKK(Ac)AMC)
Type: biochemical
condition parameters: Conc. 1.00E-05 M, t2
Peptide text beside a SMILES is read from it.
Classification field: Y = HDAC6 activity raw data (signal) at or over 2000; N = HDAC6 activity raw data (signal) under 2000.

Determine whether this compound has HDAC6 activity raw data (signal) no lower than 2000: CCCC[C@H]1NC(=O)[C@H](Cc2ccccc2)NC(=O)[C@H](CCCCCS)NC(=O)[C@@H](CCCNC(=N)N)NC(=O)[C@H](C)NC(=O)[C@@H](CO)NC(=O)[C@@H](C)NC(=O)[C@H](CCCCN)NC1=O [des4.3.1.3, SHA-Phe-dNle-Lys-dAla-dSer-Ala-dArg] (HELM PEPTIDE1{A.[dR].[O=C([C@H](CCCCCS)N[*:1])[*:2]].F.[CCCC[C@@H](N[*:1])C(=O)[*:2]].K.[dA].[dS]}$PEPTIDE1,PEPTIDE1,1:R1-8:R2$$$V2.0)
Y

Determine whether this compound has HDAC6 activity raw data (signal) no lower than 2000: N=C(N)NCCC[C@@H]1NC(=O)[C@H](Cc2c[nH]c3ccccc23)NC(=O)[C@H](CC(=O)O)NC(=O)[C@@H](CO)NC(=O)[C@H](Cc2c[nH]c3ccccc23)NC(=O)[C@H](CCCCCS)NC(=O)[C@H](CCC(N)=O)NC1=O [des4.1.0, SHA-Trp-dSer-Asp-Trp-Arg-Gln] (HELM PEPTIDE1{D.W.R.Q.[O=C([C@H](CCCCCS)N[*:1])[*:2]].W.[dS]}$PEPTIDE1,PEPTIDE1,1:R1-7:R2$$$V2.0)
N

Determine whether this compound has HDAC6 activity raw data (signal) no lower than 2000: N=C(N)NCCC[C@@H]1NC(=O)[C@@H](CCCNC(=N)N)NC(=O)[C@H]2CCCN2C(=O)[C@@H](Cc2c[nH]cn2)NC(=O)[C@H](Cc2ccc(O)cc2)NC(=O)[C@H](CCCCCS)NC(=O)[C@H](CCc2ccccc2)NC(=O)[C@@H](CO)NC(=O)[C@H](CC(=O)O)NC1=O [des3.3.1, SHA-Tyr-dHis-dPro-dArg-Arg-Asp-dSer-C27] (HELM PEPTIDE1{[O=C([C@H](CCCCCS)N[*:1])[*:2]].Y.[dH].[dP].[dR].R.D.[dS].[O=C([C@H](CCc1ccccc1)N[*:1])[*:2]]}$PEPTIDE1,PEPTIDE1,1:R1-9:R2$$$V2.0)
N

Determine whether this compound has HDAC6 activity raw data (signal) no lower than 2000: CCCC[C@H]1NC(=O)[C@H](CC(=O)O)NC(=O)[C@@H](CO)NC(=O)[C@@H](C)NC(=O)[C@H](CCCCN)NC(=O)[C@@H](CCCCN)NC(=O)[C@H](Cc2ccccc2)NC(=O)[C@H](CCCCCS)NC1=O [des4.3.1.2, SHA-Phe-dLys-Lys-dAla-dSer-Asp-dNle] (HELM PEPTIDE1{D.[CCCC[C@@H](N[*:1])C(=O)[*:2]].[O=C([C@H](CCCCCS)N[*:1])[*:2]].F.[dK].K.[dA].[dS]}$PEPTIDE1,PEPTIDE1,1:R1-8:R2$$$V2.0)
Y

Determine whether this compound has HDAC6 activity raw data (signal) no lower than 2000: C[C@H](O)[C@H]1NC(=O)[C@H](Cc2c[nH]c3ccccc23)NC(=O)[C@H](CCCCCS)NC(=O)[C@H](CCCCN)NC(=O)[C@@H](CC(=O)O)NC(=O)[C@@H](CCCCN)NC(=O)[C@@H](CO)NC(=O)[C@H](CC(N)=O)NC(=O)[C@H](CC(=O)O)NC1=O [des2.1.0, SHA-Trp-dThr-Asp-Asn-dSer-dLys-dAsp-Lys] (HELM PEPTIDE1{D.N.[dS].[dK].[dD].K.[O=C([C@H](CCCCCS)N[*:1])[*:2]].W.[dT]}$PEPTIDE1,PEPTIDE1,1:R1-9:R2$$$V2.0)
N

###

study target: HDAC6 (Homo sapiens, UniProt Q9UBN7)
Construct: purchased Reaction Biology Corporation (assay run by the CRO)
Sequence (Q9UBN7 1-1215): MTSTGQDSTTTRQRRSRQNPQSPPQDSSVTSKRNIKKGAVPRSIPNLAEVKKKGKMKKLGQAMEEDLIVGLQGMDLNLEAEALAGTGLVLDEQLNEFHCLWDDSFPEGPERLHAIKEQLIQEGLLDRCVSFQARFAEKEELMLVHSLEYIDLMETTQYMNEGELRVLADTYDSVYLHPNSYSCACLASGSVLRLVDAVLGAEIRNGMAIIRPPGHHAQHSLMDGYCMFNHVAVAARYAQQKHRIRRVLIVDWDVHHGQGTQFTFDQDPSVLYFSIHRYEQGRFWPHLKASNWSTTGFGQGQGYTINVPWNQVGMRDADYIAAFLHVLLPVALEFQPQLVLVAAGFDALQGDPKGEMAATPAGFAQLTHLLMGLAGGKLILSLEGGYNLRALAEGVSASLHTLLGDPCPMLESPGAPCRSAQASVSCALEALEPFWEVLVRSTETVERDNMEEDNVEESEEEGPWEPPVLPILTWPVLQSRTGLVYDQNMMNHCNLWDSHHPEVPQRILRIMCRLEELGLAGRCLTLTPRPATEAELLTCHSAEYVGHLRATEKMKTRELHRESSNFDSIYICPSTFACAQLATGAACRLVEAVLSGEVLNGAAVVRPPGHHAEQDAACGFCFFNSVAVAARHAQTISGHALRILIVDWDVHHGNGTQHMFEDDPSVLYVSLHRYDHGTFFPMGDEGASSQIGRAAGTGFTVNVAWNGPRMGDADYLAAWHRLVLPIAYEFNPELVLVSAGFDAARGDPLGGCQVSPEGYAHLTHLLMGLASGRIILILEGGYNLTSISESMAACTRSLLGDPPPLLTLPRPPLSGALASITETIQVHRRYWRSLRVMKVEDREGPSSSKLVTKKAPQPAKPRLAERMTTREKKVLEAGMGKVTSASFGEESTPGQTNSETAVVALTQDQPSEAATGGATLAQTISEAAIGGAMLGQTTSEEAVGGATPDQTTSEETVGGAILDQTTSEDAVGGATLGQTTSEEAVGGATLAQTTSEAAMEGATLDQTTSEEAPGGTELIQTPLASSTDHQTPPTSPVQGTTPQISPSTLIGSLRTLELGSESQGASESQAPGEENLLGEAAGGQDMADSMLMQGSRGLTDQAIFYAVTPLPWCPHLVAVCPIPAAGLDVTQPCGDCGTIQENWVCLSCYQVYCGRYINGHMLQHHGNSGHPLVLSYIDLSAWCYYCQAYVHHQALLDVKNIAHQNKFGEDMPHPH
experimental protocol: HDAC6 inhibition, full IC50 measurement (Reaction Biology; fluorogenic p53 peptide RHKK(Ac)AMC)
Format: biochemical
condition parameters: Conc. 1.52E-09 M, t1
Peptide text beside a SMILES is read from it.
Entries annotated with measured HDAC6 activity raw data (signal)
Number, no unit, nothing else.

Guide cases for HDAC6 activity raw data (signal), answers given:
molecule	HDAC6 activity raw data (signal)
CCCC[C@H]1NC(=O)[C@H](Cc2ccccc2)NC(=O)[C@H](CCCCCS)NC(=O)[C@@H](CCCNC(=N)N)NC(=O)[C@H](CC(=O)O)NC(=O)[C@@H](CO)NC(=O)[C@@H](C)NC(=O)[C@H](CCCCN)NC1=O [des4.3.1, SHA-Phe-dNle-Lys-dAla-dSer-Asp-dArg] (HELM PEPTIDE1{D.[dR].[O=C([C@H](CCCCCS)N[*:1])[*:2]].F.[CCCC[C@@H](N[*:1])C(=O)[*:2]].K.[dA].[dS]}$PEPTIDE1,PEPTIDE1,1:R1-8:R2$$$V2.0)	510826
N=C(N)NCCC[C@H]1NC(=O)[C@@H]2CCCN2C(=O)[C@H](CO)NC(=O)[C@@H](Cc2c[nH]cn2)NC(=O)[C@H](CCCCCS)NC(=O)[C@H](CCCCN)NC(=O)[C@H](Cc2ccc(O)cc2)NC(=O)[C@H]2CCCN2C(=O)[C@@H](CCC(N)=O)NC1=O [des3.1.0, SHA-dHis-Ser-Pro-dArg-dGln-dPro-Tyr-Lys] (HELM PEPTIDE1{K.[O=C([C@H](CCCCCS)N[*:1])[*:2]].[dH].S.P.[dR].[dQ].[dP].Y}$PEPTIDE1,PEPTIDE1,1:R1-9:R2$$$V2.0)	119928
CCCC[C@H]1NC(=O)[C@H](CC(=O)O)NC(=O)[C@@H](CO)NC(=O)[C@@H](C)NC(=O)[C@H](CCCCN)NC(=O)[C@@H](CCCCN)NC(=O)[C@H](Cc2ccccc2)NC(=O)[C@H](CCCCCS)NC1=O [des4.3.1.2, SHA-Phe-dLys-Lys-dAla-dSer-Asp-dNle] (HELM PEPTIDE1{D.[CCCC[C@@H](N[*:1])C(=O)[*:2]].[O=C([C@H](CCCCCS)N[*:1])[*:2]].F.[dK].K.[dA].[dS]}$PEPTIDE1,PEPTIDE1,1:R1-8:R2$$$V2.0)	1700998
NCCCC[C@@H]1NC(=O)[C@@H]2CCCN2C(=O)[C@H](CC(N)=O)NC(=O)[C@H](CCCCCS)NC(=O)CNC(=O)[C@H](Cc2c[nH]c3ccccc23)NC(=O)[C@@H](CCCCN)NC(=O)[C@H](CCC(N)=O)NC1=O [des1.1.0, SHA-Asn-Pro-Lys-Gln-dLys-Trp-Gly] (HELM PEPTIDE1{G.[O=C([C@H](CCCCCS)N[*:1])[*:2]].N.P.K.Q.[dK].W}$PEPTIDE1,PEPTIDE1,1:R1-8:R2$$$V2.0)	599157

Could you now consider this next molecule?
The value of HDAC6 activity raw data (signal) recorded for CCCC[C@H]1NC(=O)[C@H](Cc2ccccc2)NC(=O)[C@H](CCCCCS)NC(=O)[C@@H](CO)NC(=O)[C@H](CC(=O)O)NC(=O)[C@@H](CO)NC(=O)[C@@H](C)NC(=O)[C@H](CCCCN)NC1=O [des4.3.1.1, SHA-Phe-dNle-Lys-dAla-dSer-Asp-dSer] (HELM PEPTIDE1{D.[dS].[O=C([C@H](CCCCCS)N[*:1])[*:2]].F.[CCCC[C@@H](N[*:1])C(=O)[*:2]].K.[dA].[dS]}$PEPTIDE1,PEPTIDE1,1:R1-8:R2$$$V2.0) when tested on HDAC6 (Homo sapiens, UniProt Q9UBN7) reads 1628369
